# System under test: Tyrosyl-tRNA synthetase, putative (Trypanosoma cruzi (strain CL Brener)) (UniProt Q4DSP6)
# Sequence (Q4DSP6 as listed by the source): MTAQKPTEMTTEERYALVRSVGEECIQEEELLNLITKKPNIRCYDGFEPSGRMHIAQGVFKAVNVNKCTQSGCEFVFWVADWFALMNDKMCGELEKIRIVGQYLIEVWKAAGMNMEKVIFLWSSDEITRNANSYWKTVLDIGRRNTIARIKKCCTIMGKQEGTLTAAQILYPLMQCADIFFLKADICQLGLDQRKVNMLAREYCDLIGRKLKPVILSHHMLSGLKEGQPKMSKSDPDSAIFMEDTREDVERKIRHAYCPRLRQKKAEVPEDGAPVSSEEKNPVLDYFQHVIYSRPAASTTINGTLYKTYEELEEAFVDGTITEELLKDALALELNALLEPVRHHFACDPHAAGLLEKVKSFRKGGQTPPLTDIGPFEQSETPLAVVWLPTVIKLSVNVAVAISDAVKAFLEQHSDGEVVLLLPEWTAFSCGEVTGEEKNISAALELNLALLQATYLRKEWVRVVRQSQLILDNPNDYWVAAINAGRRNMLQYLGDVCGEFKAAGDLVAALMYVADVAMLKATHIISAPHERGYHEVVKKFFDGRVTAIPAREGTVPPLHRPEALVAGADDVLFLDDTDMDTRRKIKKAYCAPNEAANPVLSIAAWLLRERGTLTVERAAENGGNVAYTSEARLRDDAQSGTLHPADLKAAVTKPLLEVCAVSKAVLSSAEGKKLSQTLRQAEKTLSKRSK
# Test method notes: Trypanosoma cruzi tyrosyl tRNA synthetase (TcYRS) _High Tyrosine SOP
# Assay type: functional
# Design: scale not given: in the data most compounds retested in dose-response had high values
# Test settings: 30 µM
Observable: Percent Effect (%)
Quick note: give the figure in %, leave out the unit.

CSCc1cccc(S(=O)(=O)N2CCC(C)CC2)c1    -11.6
Cc1cc(CN2CCC(CNC(=O)c3ccc(O)c(Cl)c3)C2)[nH]n1 (stereo not given)    2.15
COc1cc(NC(=O)c2cc(C)sc2C)c(C(=O)N(C)C)cc1OC    4.3
Cc1cc(C[C@@H]2COC[C@@H]2NC(=O)Cn2c(=O)oc3ccccc32)on1    4.3
CC(C(=O)NCc1cccc(N2CC=CC2)c1)n1cccn1 (stereo not given)    0.49
COc1ccc(CN2CCCC2Cn2nc(C)nc2C)cc1F (stereo not given)    5.21
Cc1ccc(NC(=O)NCCCc2n[nH]c(N)c2C#N)cc1    5.42
CCN1CC(C(=O)NCc2ccccc2-n2cccn2)CC1=O (stereo not given)    5.71

Asked: Give its Percent Effect value. Item: COc1ccc2c(c1)CC(NC(=O)NCc1cccs1)CO2 (stereo not given)
Given back: 2.12

Asked: Give its Percent Effect value. Item: CC1c2ncc(COc3cccnc3)n2CCN1C(=O)Cc1ccco1 (stereo not given)
Given back: 2.12

Asked: Give its Percent Effect value. Item: Cc1nn(C)c(N2CCOCC2)c1CNC1CCN(C(C)(C)C)CC1
Given back: 5.42

Asked: Give its Percent Effect value. Item: COCCNC(=O)c1sc(Nc2ccc(Cl)cn2)nc1C
Given back: 6.35

Asked: Give its Percent Effect value. Item: Cc1cncc(C(=O)N2CCCCC2c2nc(C)cs2)c1 (stereo not given)
Given back: 9.71

Asked: Give its Percent Effect value. Item: O=C(c1ccc(Cl)c(Cl)c1)N1CCCC(n2cncn2)C1 (stereo not given)
Given back: 3.96

Asked: Give its Percent Effect value. Item: COc1ccc(NC(C)C(=O)N2CCN(c3ncccn3)CC2)cn1 (stereo not given)
Given back: 3.23

###

# System under test: Proteasome subunit beta (Trypanosoma cruzi) (UniProt O96673)
# Sequence (O96673 as listed by the source): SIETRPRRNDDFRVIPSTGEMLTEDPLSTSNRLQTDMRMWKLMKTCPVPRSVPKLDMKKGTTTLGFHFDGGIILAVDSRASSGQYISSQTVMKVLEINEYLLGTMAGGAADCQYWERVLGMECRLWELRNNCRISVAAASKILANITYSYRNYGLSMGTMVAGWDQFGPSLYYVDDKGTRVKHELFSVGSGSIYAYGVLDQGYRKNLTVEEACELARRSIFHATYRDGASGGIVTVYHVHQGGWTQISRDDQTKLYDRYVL
# Test method notes: Trypanosoma cruzi proteasome chymotrypsin-like activity (TcProtChymo) assay.
# Type: functional
# Parameters: scale not given: in the data most compounds retested in dose-response had high values
# Test settings: 9.37 µM
Reported Percent Effect is given for each of the following compounds.
Quick note: give the figure in %, leave out the unit.

CN(C)C(=O)[C@H]1C[C@@H]2CCN(C3CCOCC3)C[C@H]2O1    -1.03
Cc1cccnc1CN1CCC(c2nnc(Cn3cccn3)n2C)CC1    8.95
Cc1ccccc1CS(=O)(=O)CC(=O)NCc1ccccc1F    10.6
Cc1ccc2cc(CNCCCO)c(=O)[nH]c2c1    5.15
Cc1nccn1-c1cc(CNC(=O)CCNC(=O)C2CCCC2)ccn1    5.84

Asked: Give its Percent Effect value. Item: Cc1nc2ccccc2nc1CN1CCCC1c1c(C)nn(C)c1C (stereo not given)
Given back: 2.23

Asked: Give its Percent Effect value. Item: CN(C)C[C@H]1OC[C@@H]2CCN(C(=O)c3cccn3C)C[C@@H]21
Given back: 6.44

Asked: Give its Percent Effect value. Item: Cc1nc(C2(NCC(=O)NCCc3cccs3)CCCC2)no1
Given back: 15.1

Asked: Give its Percent Effect value. Item: c1nc(CCC2CCCN2)cc(N2CCCOCC2)n1 (stereo not given)
Given back: 9.36

Asked: Give its Percent Effect value. Item: Cc1ccc(CN2CCCC23CCN(S(=O)(=O)c2ccccc2)C3)o1 (stereo not given)
Given back: 18.6
